Test system: HCC827 (human non-small cell lung cancer cells)
ASSAY SUMMARY: MTT cancer cell growth inhibition
Format: cell-based
EXPERIMENTAL PARAMETERS: Homo sapiens, HCC827, 72 h, MTT, 72 hours incubation, HCC827 cells; read-out: GI50 HCC827
MEASURED ENDPOINT: GI50 (nM)

Would you please look over these solved cases?
C/C=C1\NC(=O)c2nc(ccc2SC)CNC(=O)C[C@@H](/C=C/CCSC(=O)CCCCCCC)OC(=O)[C@H](C)NC1=O; 13
C=C1NC(=O)c2cc(SC)cc(n2)CNC(=O)C[C@@H](/C=C/CCSC(C)=O)OC(=O)[C@H](C(C)C)NC1=O; 62
C/C=C1\NC(=O)c2cc(F)cc(n2)CCNC(=O)C[C@@H](/C=C/CCSC(C)=O)OC(=O)[C@H](C(C)C)NC1=O; 49

(I) C/C=C1\NC(=O)c2ccc(SC)c(n2)CNC(=O)C[C@@H](/C=C/CCSC(=O)CCC)OC(=O)[C@H](C(C)C)NC1=O
(II) C/C=C1\NC(=O)c2cc(F)cc(n2)CNC(=O)C[C@@H](/C=C/CCS)OC(=O)[C@H](C(C)C)NC1=O
(III) C/C=C1\NC(=O)c2nc(ccc2SC)CNC(=O)C[C@@H](/C=C/CCSC(=O)CCCCCCC)OC(=O)[C@H](Cc2ccccc2)NC1=O
Q: Please list the entries, largest GI50 first. Dear reader, please state the labels in the requested order.
A: I, III, II

###

Tested on: MDA-MB-231 (breast cancer cells)
ASSAY SUMMARY: MTT cancer cell growth inhibition
Type: cell-based
EXPERIMENTAL PARAMETERS: Homo sapiens, MDA-MB-231, 72 h, read-out: GI50 MDA-MB-231, MTT, 72 hours incubation, MDA-MB-231 cells
Source text: MTT assay principle is yellow MTT can penetrate membrane into the cell, succinic dehydrogenase of the mitochondria in living cells can make exogenous MTT reduction of insoluble in water of blue-violet acicular formazan for crystallization and deposition in the cell, crystallization can be dissolved dimethyl sulfoxide (DMSO) solution, detected its absorbance at 490 nm/570 nm wavelength by enzyme-linked immunosorbent assay, which can reflect the number of cells. […] e) 570 nm readings. […]
MEASURED ENDPOINT: GI50 (µM)

Here's what some known entries look like.
C/C=C1\NC(=O)c2ccc(SC)c(n2)CNC(=O)C[C@@H](/C=C/CCSC(=O)CCCCCC)OC(=O)[C@H](C(C)C)NC1=O; 0.065
C/C=C1\NC(=O)c2ccc(SCCC)c(n2)CNC(=O)C[C@@H](/C=C/CCSC(=O)CCCCCCC)OC(=O)[C@H](CC)NC1=O; 0.032

(A) C/C=C1\NC(=O)c2nc(ccc2F)CNC(=O)C[C@@H](/C=C/CCSC=O)OC(=O)[C@H](C(C)C)NC1=O
(B) C/C=C1\NC(=O)c2cc(SC)cc(n2)CNC(=O)C[C@@H](/C=C/CCS)OC(=O)[C@H](CC)NC1=O
(C) C/C=C1\NC(=O)c2cccc(n2)CNC(=O)C[C@@H](/C=C/CCSC(=O)CCCCCCC)OC(=O)[C@H](C(C)(C)C)NC1=O
Q: Sort the 3 molecules by GI50; largest first, smallest last. Lab note: record answer as labels in requested order.
A: B, A, C

###

System: DU145 (human prostate cancer cells)
ASSAY SUMMARY: MTT cancer cell growth inhibition
Assay type: cell-based
EXPERIMENTAL PARAMETERS: Homo sapiens, DU-145, 72 h, MTT, 72 hours incubation; read-out: GI50 Du1
MEASURED ENDPOINT: GI50 (nM)

Solved entries:
C/C=C1\NC(=O)c2nc(ccc2F)CNC(=O)C[C@@H](/C=C/CCSC(C)=O)OC(=O)[C@H](CCCCN)NC1=O [Compound 72]; 30
C/C=C1\NC(=O)c2cccc(n2)CNC(=O)C[C@@H](/C=C/CCSC(C)=O)OC(=O)[C@H](CCCCN)NC1=O [Compound 15]; 480
C/C=C1\NC(=O)c2nc(ccc2F)CNC(=O)C[C@@H](/C=C/CCSC(=O)CCCCCCC)OC(=O)[C@H](C)NC1=O [Example 60]; 20
C/C=C1\NC(=O)c2cccc(n2)CNC(=O)C[C@@H](/C=C/CCS)OC(=O)[C@H](CC)NC1=O [Example 28]; 430
C/C=C1\NC(=O)c2ccc(F)c(n2)CNC(=O)C[C@@H](/C=C/CCSC(=O)CCCCCC)OC(=O)[C@H](C(C)C)NC1=O [Example 35]; 20
C=C1NC(=O)c2ccc(F)c(n2)CNC(=O)C[C@@H](/C=C/CCS)OC(=O)[C@H](C)NC1=O [Compound 142]; 50
C/C=C1\NC(=O)c2nc(ccc2F)CNC(=O)C[C@@H](/C=C/CCSC(=O)CCCCC)OC(=O)[C@H](C(C)C)NC1=O [Compound 36]; 20
C/C=C1\NC(=O)c2nc(ccc2F)CNC(=O)C[C@@H](/C=C/CCSC(C)=O)OC(=O)[C@@H](C)NC1=O [Compound 100]; 20
C/C=C1\NC(=O)c2nc(ccc2F)CNC(=O)C[C@@H](/C=C/CCSC(=O)CCCCCC)OC(=O)[C@H](C(C)C)NC1=O [Compound 33]; 10

(I) C/C=C1\NC(=O)c2ccc(F)c(n2)CNC(=O)C[C@@H](/C=C/CCSC(=O)CCCCCCC)OC(=O)[C@H](C)NC1=O [Example 62]
(II) CC(=O)SCC/C=C/[C@@H]1CC(=O)NCc2cccc(n2)C(=O)NC(=C(C)C)C(=O)N[C@@H](C(C)C)C(=O)O1 [Compound 20]
(III) C=C1NC(=O)c2nc(ccc2F)CNC(=O)C[C@@H](/C=C/CCSC(C)=O)OC(=O)[C@H](C)NC1=O [Compound 90]
(IV) C/C=C1\NC(=O)c2cccc(n2)CNC(=O)C[C@@H](/C=C/CCSC(C)=O)OC(=O)[C@H](Cc2ccccc2)NC1=O [Compound 13]
Q: Ascending by GI50, please. Answer by listing the labels in the order asked for.
A: I, IV, III, II

###

TARGET ENTITY: UniProt:Q8WUI4
Sequence (Q8WUI4 whole entry): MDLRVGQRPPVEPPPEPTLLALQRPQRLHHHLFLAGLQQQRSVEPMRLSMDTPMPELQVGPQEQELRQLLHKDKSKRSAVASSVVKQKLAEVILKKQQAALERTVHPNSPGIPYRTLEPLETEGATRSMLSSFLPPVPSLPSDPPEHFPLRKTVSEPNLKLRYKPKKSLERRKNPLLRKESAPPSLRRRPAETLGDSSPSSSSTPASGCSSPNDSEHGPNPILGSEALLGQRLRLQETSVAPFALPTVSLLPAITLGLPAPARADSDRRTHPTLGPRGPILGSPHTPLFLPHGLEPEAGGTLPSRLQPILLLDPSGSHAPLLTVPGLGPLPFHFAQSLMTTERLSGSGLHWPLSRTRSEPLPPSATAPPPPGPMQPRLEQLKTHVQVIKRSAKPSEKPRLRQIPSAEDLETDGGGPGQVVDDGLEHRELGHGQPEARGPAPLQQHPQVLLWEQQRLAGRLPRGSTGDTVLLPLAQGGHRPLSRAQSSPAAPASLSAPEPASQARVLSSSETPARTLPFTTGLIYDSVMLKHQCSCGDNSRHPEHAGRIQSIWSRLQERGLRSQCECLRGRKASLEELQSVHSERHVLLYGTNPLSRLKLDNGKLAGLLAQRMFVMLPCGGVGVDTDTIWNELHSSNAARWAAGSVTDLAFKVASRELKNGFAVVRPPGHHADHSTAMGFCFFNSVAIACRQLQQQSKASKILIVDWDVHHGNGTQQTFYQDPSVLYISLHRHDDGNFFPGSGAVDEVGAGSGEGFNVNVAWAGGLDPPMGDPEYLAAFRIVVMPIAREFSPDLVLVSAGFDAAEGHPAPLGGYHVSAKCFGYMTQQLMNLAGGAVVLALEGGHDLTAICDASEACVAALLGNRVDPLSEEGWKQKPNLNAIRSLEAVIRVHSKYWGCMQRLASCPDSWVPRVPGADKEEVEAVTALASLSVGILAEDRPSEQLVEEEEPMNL
ASSAY SUMMARY: HDAC biochemical activity measurement (fluorescent substrate deacetylation);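 also: fluorogenic deacetylation assay using acetyl-lysine substrate at 20 µM, enzyme and compound incubated 30 min at 37 °C, then developer added, fluorescence read at 360/460 nm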
EXPERIMENTAL PARAMETERS: HDAC7; 37° C. 30 minutes
MEASURED ENDPOINT: IC50 HDAC7

C/C=C1\NC(=O)c2cc(SC)cc(n2)CNC(=O)C[C@@H](/C=C/CCSC(C)=O)OC(=O)[C@H](Cc2cccc3ccccc23)NC1=O [Compound 199]; no activity
C/C=C1\NC(=O)c2cc(F)cc(n2)CNC(=O)C[C@@H](/C=C/CCSC(=O)CCCCCCC)OC(=O)[C@H](Cc2ccccc2)NC1=O [Compound 70]; no activity
CCCCCCCC(=O)SCC/C=C/[C@@H]1CC(=O)NCc2cccc(n2)C(=O)NC(CC)C(=O)N[C@@H](C(C)C)C(=O)O1 (stereo partly drawn) [Compound 245]; no activity

###

System: U937 (human leukemia cells)
ASSAY SUMMARY: MTT cancer cell growth inhibition
Type: cell-based
EXPERIMENTAL PARAMETERS: Homo sapiens, U-937, 72 h, U937 cells, MTT, 72 hours incubation; read-out: GI50 U93
MEASURED ENDPOINT: GI50 (nM)

Some entries whose results are on file:
C/C=C1\NC(=O)c2ccc(SC)c(n2)CNC(=O)C[C@@H](/C=C/CCSC(C)=O)OC(=O)[C@H](CCCCNC(=O)OCC2c3ccccc3-c3ccccc32)NC1=O; 80
C/C=C1\NC(=O)c2nc(ccc2SCC)CNC(=O)C[C@@H](/C=C/CCSC(=O)CCCCC)OC(=O)[C@H](C(C)C)NC1=O; 30
C/C=C1\NC(=O)c2ccc(SC)c(n2)CNC(=O)C[C@@H](/C=C/CCS)OC(=O)[C@H](CC)NC1=O; 80
C/C=C1\NC(=O)c2ccc(SC)c(n2)CNC(=O)C[C@@H](/C=C/CCSC(C)=O)OC(=O)[C@H](CC)NC1=O; 50
C/C=C1\NC(=O)c2nc(ccc2SC)CNC(=O)C[C@@H](/C=C/CCSC(=O)CCCCCCC)OC(=O)[C@H](C(C)C)NC1=O; 30
C/C=C1\NC(=O)c2cc(SC)cc(n2)CNC(=O)C[C@@H](/C=C/CCSC(C)=O)OC(=O)[C@H](Cc2ccc(O)cc2)NC1=O; 20
C/C=C1\NC(=O)c2nc(ccc2SC)CNC(=O)C[C@@H](/C=C/CCSC(=O)CCCCCCC)OC(=O)[C@H](C)NC1=O; 70
CCCCCCCC(=O)SCC/C=C/[C@@H]1CC(=O)NCc2cccc(n2)C(=O)NCC(=O)N[C@@H](C(C)C)C(=O)O1; 110

(1) C/C=C1\NC(=O)c2nc(ccc2SC)CNC(=O)C[C@@H](/C=C/CCS)OC(=O)[C@H](C)NC1=O
(2) C/C=C1\NC(=O)c2ccc(SC)c(n2)CNC(=O)C[C@@H](/C=C/CCSC(=O)CCCCCCC)OC(=O)[C@H](C(C)C)NC1=O
Q: Between these two entries, 1 and 2 , state which has the higher GI50. Indicate which entry you chose by stating its label.
A: 1

(1) C=C1NC(=O)c2nc(ccc2SC)CNC(=O)C[C@@H](/C=C/CCSC(C)=O)OC(=O)[C@H](C)NC1=O
(2) C/C=C1\NC(=O)c2cc(SC)cc(n2)CNC(=O)C[C@@H](/C=C/CCSC(=O)CCCCC)OC(=O)[C@H](C(C)C)NC1=O
(3) C/C=C1\NC(=O)c2cc(SC)cc(n2)CNC(=O)C[C@@H](/C=C/CCSC(C)=O)OC(=O)[C@H](Cc2ccccc2)NC1=O
(4) C/C=C1\NC(=O)c2cc(SC)cc(n2)CNC(=O)C[C@@H](/C=C/CCSC(C)=O)OC(=O)[C@H](CC)NC1=O
Q: Arrange these compounds by their GI50, starting with the largest number. Sort and list the labels as requested.
A: 4, 3, 2, 1
(4: 90 nM, 3: 60 nM, 2: 40 nM, 1: 20 nM)
